Biological target: T1, human CD40L monomer triple mutant (T211E, S222Y, H224K, [108-261]) (human, UniProt P29965 108-261)
T1 construct: also called monomeric human CD40L
T1 chain: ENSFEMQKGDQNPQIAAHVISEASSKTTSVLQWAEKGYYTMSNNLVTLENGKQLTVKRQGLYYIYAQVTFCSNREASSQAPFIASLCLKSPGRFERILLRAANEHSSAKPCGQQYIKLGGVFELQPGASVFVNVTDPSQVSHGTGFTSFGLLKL
Assay: SPR; dAb-CT-long captured on anti-human IgG Fc surface, CD40L monomer as analyte
reported property: binding result

2h572-6-CT Long Fc (Fc fusion, not shown: linker and CT Long Fc (CT-L2)) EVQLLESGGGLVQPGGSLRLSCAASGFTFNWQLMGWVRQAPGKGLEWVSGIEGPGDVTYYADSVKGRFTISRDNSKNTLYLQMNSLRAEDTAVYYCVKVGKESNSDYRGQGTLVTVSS; no binding
2h572-633-CT Long Fc (Fc fusion, not shown: linker and CT Long Fc (CT-L2)) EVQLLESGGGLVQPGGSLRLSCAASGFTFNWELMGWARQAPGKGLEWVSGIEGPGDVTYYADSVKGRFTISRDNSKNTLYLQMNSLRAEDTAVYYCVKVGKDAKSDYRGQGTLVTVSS; no binding
